- System: MV4-11 cell line
- TEST METHOD NOTES: MV4-11 anti-proliferation assay (CellTiterGlo, 72 hour)
- Type: cell-based
- MEASUREMENT CONTEXT: Homo sapiens, MV4-11 cells
ASSAY METRIC: IC50 (µM)

# COMPOUND, UNIT TAG, IC50
measured = [
    ("CN(C)c1cc(NC(=O)CNC(C)(C)C)c(O)c2c1C[C@H]1C[C@H]3[C@H](N(C)C)C(O)=C(C(N)=O)C(=O)[C@@]3(O)C(O)=C1C2=O [Tigecycline, tigecycline, reference compound]", "µM", 4.64),
    ("NC(=O)C1=C(O)[C@@H](N)[C@@H]2C[C@@H]3Cc4c(F)cc(NC(=O)CN5CCCC5)c(O)c4C(=O)C3=C(O)[C@]2(O)C1=O", "µM", 0.17),
    ("CCN1CCC[C@H]1c1cc(O)c2c(c1OC)C[C@H]1C[C@H]3[C@H](N)C(O)=C(C(N)=O)C(=O)[C@@]3(O)C(O)=C1C2=O", "µM", 0.1),
    ("CCN[C@@H]1C(O)=C(C(N)=O)C(=O)[C@@]2(O)C(O)=C3C(=O)c4c(O)cc([C@@H]5CCCN5CC)c(OC)c4C[C@H]3C[C@@H]12 (single isomer, unassigned)", "µM", 0.13),
]
